Ok so here's the combined literature set: Ki for Translocator protein (Rattus norvegicus).
Consider the reported Ki of an entry and match it to a band in low interval (below 2 nM), middle interval (2 nM to below 10 nM), high interval (10 nM or more)

Example entries and their recorded answers appear below.
| Compound | Target Or System | Class Name |
| --- | --- | --- |
| CCCN(CCC)C(=O)c1coc(-c2ccccc2)n1 | Translocator protein (Rattus norvegicus) | high interval |
| CCN(Cc1ccccc1)C(=O)C(=O)c1c(-c2ccccc2)[nH]c2ccc(Cl)cc12 | Translocator protein (Rattus norvegicus) | middle interval |
| CCCN(CCC)C(=O)c1nc(-c2ccccc2)no1 | Translocator protein (Rattus norvegicus) | high interval |
| CCCN(CCC)C(=O)C(=O)c1c(-c2ccc(F)cc2)[nH]c2ccc(Cl)cc12 | Translocator protein (Rattus norvegicus) | middle interval |
| CCCN(CCC)C(=O)C(=O)c1c(-c2ccccc2)[nH]c2c(C)cccc12 | Translocator protein (Rattus norvegicus) | high interval |

Lookup: Could you tell me which band CC(C)CN(C)C(=O)c1nc(-c2ccccc2Cl)c2ccccc2n1 belongs to?
Found: middle interval

Lookup: Could you tell me which band CCN(Cc1ccc(OC)cc1)C(=O)c1nc(-c2ccccc2)c2ccccc2n1 belongs to?
Found: middle interval

Lookup: Could you tell me which band CCN(CC)C(=O)C1(C)c2c(n(CCF)c3ccccc23)-c2ccccc2S1(=O)=O (racemic) belongs to?
Found: high interval

Lookup: Could you tell me which band CCN(C)C(=O)C(=O)c1c(-c2ccccc2)[nH]c2ccccc12 belongs to?
Found: high interval

Lookup: Could you tell me which band CCN(Cc1ccccc1)C(=O)C(=O)c1c(-c2ccc(F)cc2)[nH]c2ccc(F)cc12 belongs to?
Found: low interval

Lookup: Could you tell me which band Cl.NC1=Nc2ccc(Cl)cc2CN1 belongs to?
Found: high interval

Lookup: Could you tell me which band CCCCN(C)C(=O)C(=O)c1c(-c2ccc(Cl)cc2)[nH]c2ccc(Cl)cc12 belongs to?
Found: low interval

Lookup: Could you tell me which band CN(Cc1ccccc1)C(=O)c1nc(-c2ccccc2)c2ccccc2n1 belongs to?
Found: middle interval

Lookup: Could you tell me which band CCCN(C)C(=O)C1CCCc2c1c1ccccc1n2CCF (racemic) belongs to?
Found: middle interval

Lookup: Could you tell me which band CCCCCCN(CCCCCC)C(=O)c1coc(-c2ccccc2)n1 belongs to?
Found: high interval

Lookup: Could you tell me which band CN(Cc1ccccc1)C(=O)C(=O)c1c(-c2ccc(F)cc2)n(C)c2ccccc12 belongs to?
Found: middle interval

Lookup: Could you tell me which band CCCCCN(CCCCC)C(=O)Cc1coc(-c2ccc(Cl)cc2)n1 belongs to?
Found: high interval

Lookup: Could you tell me which band CCCCCCN(CCCCCC)C(=O)C(=O)c1c(-c2ccccc2)[nH]c2ccc(N=C=S)cc12 belongs to?
Found: high interval

###

Ok so here's the combined literature set: log10(Ki) for Translocator protein (Rattus norvegicus).
# values: log10(Ki), units nM

Worked examples follow.
| Compound | log10(Ki) |
| --- | --- |
| CCCCCCN(CCCCCC)C(=O)C(=O)c1c(-c2ccccc2)[nH]c2c(Cl)cccc12 | 0.38 |
| CCN(CC)C(=O)C1Sc2c(OC)cccc2-c2c1c1ccccc1n2CCF (racemic) | -0.48 |
| O=C(NCc1ccccc1)C1CCCc2c1c1ccccc1n2CCF (racemic) | 1.46 |

Batch: log10(Ki) for all items listed.
1. CCCCCCN(CCCCCC)C(=O)Cc1coc(-c2ccc(F)cc2)n1
2. CCN(CC)C(=O)C1CCCc2c1c1cc(O)ccc1n2CCF (racemic)

Found:
[2.20, 2.13]

Batch: log10(Ki) for all items listed.
1. CC(C)N(C)C(=O)c1nc(-c2ccccc2)c2ccccc2n1
2. CCN(Cc1ccc(C)cc1)C(=O)c1nc(-c2ccccc2)c2ccccc2n1

Found:
[1.85, 0.41]
